- target.or.test.system: DOR (Homo sapiens)
- Sequence (P41143 whole entry): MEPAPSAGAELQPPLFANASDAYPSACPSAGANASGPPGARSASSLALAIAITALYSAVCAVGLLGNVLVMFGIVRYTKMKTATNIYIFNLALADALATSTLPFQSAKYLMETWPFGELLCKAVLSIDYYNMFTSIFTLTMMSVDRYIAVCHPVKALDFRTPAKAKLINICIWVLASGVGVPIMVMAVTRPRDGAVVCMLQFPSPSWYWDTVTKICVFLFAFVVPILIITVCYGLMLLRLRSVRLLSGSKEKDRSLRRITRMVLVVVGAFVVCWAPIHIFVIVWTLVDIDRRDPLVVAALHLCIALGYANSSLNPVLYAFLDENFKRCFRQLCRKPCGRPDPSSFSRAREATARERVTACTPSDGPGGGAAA
- method.summary: Radioligand binding assay at δ opioid receptor
- condition.set: Ki^δ (nM)
Non-standard residues stand in square brackets, D forms with d. Residues, ends and D or L forms follow the SMILES beside them. *: point of attachment. NH(3,5-(CF3)2-benzyl) = FC(F)(F)c1cc(CN*)cc(C(F)(F)F)c1; Dmt = Cc1cc(O)cc(C)c1C[C@H](N)C(=O)O; NMeF = CN[C@@H](Cc1ccccc1)C(=O)O
API: label(entry) gives Yes if the entry's Ki is strictly smaller than 3 nM; on equality or larger values it gives No.

A selection of reference data follows.
CC(C)C[C@H](NC(=O)[C@@H]1CCCN1C(=O)[C@H](CCC(N)=O)NC(=O)[C@H](Cc1ccccc1)NC(=O)CNC(=O)[C@@H](C)NC(=O)[C@@H](N)Cc1ccc(O)cc1)C(=O)N[C@@H](Cc1c[nH]c2ccccc12)C(=O)NCc1cc(C(F)(F)F)cc(C(F)(F)F)c1 = No
CC(C)C[C@H](NC(=O)[C@@H]1CCCN1C(=O)[C@H](Cc1ccc(F)cc1)NC(=O)CNC(=O)[C@@H](C)NC(=O)[C@@H](N)Cc1ccc(O)cc1)C(=O)N[C@@H](Cc1c[nH]c2ccccc12)C(=O)NCc1cc(C(F)(F)F)cc(C(F)(F)F)c1 = Yes
CC(C)C[C@H](NC(=O)[C@@H]1CCCN1C(=O)CNC(=O)[C@H](CO)NC(=O)[C@H](Cc1ccccc1)N(C)C(=O)CNC(=O)[C@@H](C)NC(=O)[C@@H](N)Cc1ccc(O)cc1)C(=O)N[C@@H](Cc1c[nH]c2ccccc12)C(=O)NCc1cc(C(F)(F)F)cc(C(F)(F)F)c1 [AKG-CRA-136] (H-Y[dA]G[NMeF]SGPLW-{NH(3,5-(CF3)2-benzyl)}) = No
CC(C)C[C@H](NC(=O)[C@@H]1CCCN1C(=O)c1ccc(NC(=O)[C@H](Cc2ccccc2)N(C)C(=O)CNC(=O)[C@@H](C)NC(=O)[C@@H](N)Cc2ccc(O)cc2)cc1)C(=O)N[C@@H](Cc1c[nH]c2ccccc12)C(=O)NCc1cc(C(F)(F)F)cc(C(F)(F)F)c1 = No
CC(C)C[C@H](NC(=O)[C@@H]1CCCN1C(=O)[C@H](CCC(N)=O)NC(=O)[C@H](Cc1ccc(F)cc1)NC(=O)CNC(=O)[C@@H](C)NC(=O)[C@@H](N)Cc1ccc(O)cc1)C(=O)N[C@@H](Cc1c[nH]c2ccccc12)C(=O)NCc1cc(C(F)(F)F)cc(C(F)(F)F)c1 = Yes

Switching to the query record.
Confirm or reject: Ki of Cc1cc(O)cc(C)c1C[C@H](N)C(=O)N[C@H](C)C(=O)NCC(=O)N(C)[C@@H](Cc1ccccc1)C(=O)N[C@@H](CO)C(=O)NCC(=O)N1CCC[C@H]1C(=O)N[C@@H](CC(C)C)C(=O)N[C@@H](Cc1c[nH]c2ccccc12)C(=O)NCc1cc(C(F)(F)F)cc(C(F)(F)F)c1 [AKG-CRA-137] (H-[Dmt][dA]G[NMeF]SGPLW-{NH(3,5-(CF3)2-benzyl)}) lies strictly below 3 nM
Yes
